Test: total protein half-life in vivo (active degradation + dilution); higher = more stable protein
Details: E. coli NCM3722 delta-lon; growth: N-lim chemostat; doubling time 6 h
So basically: total protein half-life in vivo at 6 h or higher? That is satisfied. Lower than 6 h? That is not satisfied.

| MONOMER_SEQUENCE | ASSIGNED_CLASS |
| --- | --- |
| MTQPLFLIGPRGCGKTTVGMALADSLNRRFVDTDQWLQSQLNMTVAEIVEREEWAGFRARETAALEAVTAPSTVIATGGGIILTEFNRHFMQNNGIVVYLCAPVSVLVNRLQAAPEEDLRPTLTGKPLSEEVQEVLEERDALYREVAHIIIDATNEPSQVISEIRSALAQTINC [P0A6E1] | not satisfied |

--- query ---
Query string: Is reported total protein half-life in vivo greater than or equal to 6 h here: "MGLPPLSKIPLILRPQAWLHRRHYGEVLSPIRWWGRIPFIFYLVSMFVGWLERKRSPLDPVVRSLVSARIAQMCLCEFCVDITSMKVAERTGSSDKLLAVADWRQSPLFSDEERLALEYAEAASVTPPTVDDALRTRLAAHFDAQALTELTALIGLQNLSARFNSAMDIPAQGLCRIPEKRS"
Result string: satisfied

====

Experiment: total protein half-life in vivo (active degradation + dilution); higher = more stable protein
Conditions: wild type E. coli NCM3722; growth: C-lim chemostat; doubling time 6 h
REPORTED_METRIC: total protein half-life in vivo

| MONOMER_SEQUENCE | REPORTED_METRIC | RESULT |
| --- | --- | --- |
| MESGHRFDAQTLHSFIQAVFRQMGSEEQEAKLVADHLIAANLAGHDSHGIGMIPSYVRSWSQGHLQINHHAKTVKEAGAAVTLDGDRAFGQVAAHEAMALGIEKAHQHGIAAVALHNSHHIGRIGYWAEQCAAAGFVSIHFVSVVGIPMVAPFHGRDSRFGTNPFCVVFPRKDNFPLLLDYATSAIAFGKTRVAWHKGVPVPPGCLIDVNGVPTTNPAVMQESPLGSLLTFAEHKGYALAAMCEILGGALSGGKTTHQETLQTSPDAILNCMTTIIINPELFGAPDCNAQTEAFAEWVKASPHDDDKPILLPGEWEVNTRRERQKQGIPLDAGSWQAICDAARQIGMPEETLQAFCQQLAS | total protein half-life in vivo | 5.02 h |

Turning to the following sequence.
Value of measured total protein half-life in vivo for the entry MAAIAFIGLGQMGSPMASNLLQQGHQLRVFDVNAEAVRHLVDKGATPAANPAQAAKDAEFIITMLPNGDLVRNVLFGENGVCEGLSTDALVIDMSTIHPLQTDKLIADMQAKGFSMMDVPVGRTSANAITGTLLLLAGGTAEQVERATPILMAMGSELINAGGPGMGIRVKLINNYMSIALNALSAEAAVLCEALNLPFDVAVKVMSGTAAGKGHFTTSWPNKVLSGDLSPAFMIDLAHKDLGIALDVANQLHVPMPLGAASREVYSQARAAGRGRQDWSAILEQVRVSAGMTAKVKM [P0A9V8] : 4.77 h

====

total protein half-life in vivo: recorded values
Assay: total protein half-life in vivo (active degradation + dilution); higher = more stable protein
Conditions: wild type E. coli NCM3722; growth: C-lim chemostat; doubling time 6 h
Form entry: value (h) — number only.

Past entries and their recorded results:
| MONOMER_SEQUENCE | UNIT_ABBREVIATION | total protein half-life in vivo |
| --- | --- | --- |
| MSFMVSEEVTVKEGGPRMIVTGYSSGMVECRWYDGYGVKREAFHETELVPGEGSRSAEEV | h | 0.469 |
| MPDQTQQFSFKVLTINIHKGFTAFNRRFILPELRDAVRTVSADIVCLQEVMGAHEVHPLHVENWPDTSHYEFLADTMWSDFAYGRNAVYPEGHHGNAVLSRYPIEHYENRDVSVDGAEKRGVLYCRIVPPMTGKAIHVMCVHLGLREAHRQAQLAMLAEWVNELPDGEPVLVAGDFNDWRQKANHPLKVQAGLDEIFTRAHGRPARTFPVQFPLLRLDRIYVKNASASAPTALPLRTWRHLSDHAPLSAEIHL [P0AAW1] | h | 4.96 |
| MKTSVRIGAFEIDDGELHGESPGDRTLTIPCKSDPDLCMQLDAWDAETSIPALLNGEHSVLYRTRYDQQSDAWIMRLA | h | 1.85 |
| MIKKIGVLTSGGDAPGMNAAIRGVVRSALTEGLEVMGIYDGYLGLYEDRMVQLDRYSVSDMINRGGTFLGSARFPEFRDENIRAVAIENLKKRGIDALVVIGGDGSYMGAMRLTEMGFPCIGLPGTIDNDIKGTDYTIGFFTALSTVVEAIDRLRDTSSSHQRISVVEVMGRYCGDLTLAAAIAGGCEFVVVPEVEFSREDLVNEIKAGIAKGKKHAIVAITEHMCDVDELAHFIEKETGRETRATVLGHIQRGGSPVPYDRILASRMGAYAIDLLLAGYGGRCVGIQNEQLVHHDIIDAIENMKRPFKGDWLDCAKKLY [P0A796] | h | 5.83 |
| MKLKNTLLASALLSAMAFSVNAATELTPEQAAAVKPFDRVVVTGRFNAIGEAVKAVSRRADKEGAASFYVVDTSDFGNSGNWRVVADLYKADAEKAEETSNRVINGVVELPKDQAVLIEPFDTVTVQGFYRSQPEVNDAITKAAKAKGAYSFYIVRQIDANQGGNQRITAFIYKKDAKKRIVQSPDVIPADSEAGRAALAAGGEAAKKVEIPGVATTASPSSEVGRFFETQSSKGGRYTVTLPDGTKVEELNKATAAMMVPFDSIKFSGNYGNMTEVSYQVAKRAAKKGAKYYHITRQWQERGNNLTVSADLYK | h | 5.73 |

Documented total protein half-life in vivo of MPLLDIRNLTIEFKTGDEWVKAVDRVSMTLTEGEIRGLVGESGSGKSLIAKAICGVNKDNWRVTADRMRFDDIDLLRLSARERRKLVGHNVSMIFQEPQSCLDPSERVGRQLMQNIPAWTYKGRWWQRFGWRKRRAIELLHRVGIKDHKDAMRSFPYELTEGECQKVMIAIALANQPRLLIADEPTNSMEPTTQAQIFRLLTRLNQNSNTTILLISHDLQMLSQWADKINVLYCGQTVETAPSKELVTMPHHPYTQALIRAIPDFGSAMPHKSRLNTLPGAIPLLEQLPIGCRLGPRCPYAQRECIVTPRLTGAKNHLYACHFPLNMEKE [P0AAH4] : 5.52
